Target Under Test: Alpha-2C adrenergic receptor (Homo sapiens)
Experiment Notes: compounds altering alpha2C-coupled GIRK flux – cell-based, HEK293 alpha2C/GIRK1/2, thallium flux, primary screen (AID 624);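 also: slope of fluorescence ratio to pre-addition baseline per second over 15 to 24 s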
Condition Info: thallium flux BTC fluorescence, at 10 µM, actives lie on both sides
Calls of active or inactive are those of the source.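 The calls were made as follows: active = fluorescence slope after compound addition differing from the mean of all screened samples at 99.7% confidence, in either direction; inactive = the rest.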
Quantity: slope

Molecule	Value
Cc1cc(NC(=O)COC(=O)C2COc3ccccc3O2)no1 (stereo unspecified)	0.00343 (inactive)
CC1Cc2ccccc2N1S(=O)(=O)c1cccc(C(=O)OCC(=O)NC2CCS(=O)(=O)C2)c1 (stereo unspecified)	0.00343 (inactive)
S=c1[nH]nc(Cc2ccccc2)n1-c1ccccc1	0.00525 (inactive)
CC(C)(C)NC(=O)CN(C(=O)CS(=O)CC(=O)Nc1ccc(F)cc1)c1ccc(Cl)cc1 (stereo unspecified)	0.00479 (inactive)
Nc1nc(Nc2cccc3ccccc23)nc(C2CCCC2=O)n1 (stereo unspecified)	0.00598 (inactive)
CC(C)(C)C1CCc2[nH]nc(C(=O)O)c2C1 (stereo unspecified)	0.00808 (inactive)
Cc1ccc(C(=O)CC2(O)C(=O)N(CN3CCOCC3)c3ccccc32)cc1 (stereo unspecified)	0.00346 (inactive)
CCOC(=O)C(C#N)C(c1cccnc1)c1c(C)[nH][nH]c1=O (stereo unspecified)	0.0052 (inactive)
CCCS(=O)(=O)N1CCC(C(=O)NCCN2CCCC2)CC1	0.00665 (inactive)
Cn1c2ccc(F)cc2c2ncn(CCN3CCOCC3)c(=O)c21	0.00608 (inactive)
Cc1onc(-c2ccccc2Cl)c1C(=O)N1CCc2ccccc21	0.00452 (inactive)

----------
Experiment Notes: reduction of polyQ htt aggregates in cells – imaging, exon1htt(103Q)mCFP cells, high-content imaging, primary screen (AID 483);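 also: compound exposure lasted 3 days before fixation; percent of the per-plate median nuclei count of sample wells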
Condition Info: exon1htt(103Q)mCFP cell line, aggregate imaging, at 2 µM; measured here: cell count, toxicity

Compound	nuclei count [%]
O=C1C(C=NCCCn2ccnc2)=C(O)c2ccccc21	104
CC1CN(c2nc3ccccc3nc2C(C#N)C(=O)NCc2ccc3c(c2)OCO3)CC(C)O1 (stereo not drawn)	83.9
Cn1c(C(=O)NCCN2CCN(c3ccccc3F)CC2)cc2c(=O)n(C)c3ccccc3c21	119
COc1ccc(OCC(O)Cn2c(Br)nc3c2c(=O)[nH]c(=O)n3C)cc1 (stereo not drawn)	74.9
CC(=O)c1ccccc1NS(=O)(=O)c1c(C)nn(-c2ccccc2)c1C	113
CCOC(=O)c1cnc2c(OC)cccc2c1N1CCN(c2ccc(OC)cc2)CC1	72.9
CCN1CCN(Cc2nc3c(c(=O)[nH]c(=O)n3C)n2Cc2ccccc2Cl)CC1	71.4
Cc1c(C(=O)OCCOC(C)C)[nH]c2c1C(=O)CC(c1ccco1)C2 (stereo not drawn)	5.8
S=c1[nH]nc(Cc2ccccc2)n1Cc1ccco1	101
O=C(NCc1cccs1)c1cc2c(s1)-c1ccccc1OC2	98.2
CCCCC(O)(C(NC=O)C(=O)OC)C(F)(F)F (stereo not drawn)	67.6
O=C(Nc1ccon1)c1csc2c1CCCC2	104
OCCn1c(-c2ccc3c(c2)OCO3)csc1=Nc1ccccc1	66.3
COC(=O)c1ccccc1NC(=O)C1CC(=O)N(c2ccccc2)C1 (stereo not drawn)	99.5
Cc1cc(O)c(-c2cc(C(=O)Nc3ccc(S(=O)(=O)N4CCOCC4)cc3)[nH]n2)cc1C	100
CCn1c(C)nc2cc(C(=O)OCCC(F)(F)F)ccc21	106
CCS(=O)(=O)N1CCCC(C(=O)NCc2ccccc2Cl)C1 (stereo not drawn)	107
Cc1ccc(-n2nc(C)c3cc(C(=O)O)sc32)cc1	90.3
Nc1ncnc2nc(Sc3ccc(Cl)cc3)[nH]c12	108
COC(=O)c1ccc(C2CC(=O)Nc3cc(OC)c(OC)c(OC)c32)cc1 (stereo not drawn)	90.4
Cc1ccc(-n2ncc3c(=O)n(CC(=O)N4CCCc5ccccc54)cnc32)cc1C	93.3
CCOC(=O)C1=C(C)N=c2s/c(=C\c3cccn3C)c(=O)n2C1c1cccc(OC)c1OC (stereo not drawn)	98.8
COc1ccc(-c2noc(CCCC(=O)O)n2)cc1	125

----------
Experiment Notes: inhibitors of TNFa-induced NFkB p65 translocation, primary screen, imaging, HUVEC, MLSMR starter and 10KST1 sets (AID 438);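 also: compound added about 3h40 before a 20 min TNFalpha stimulation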
Condition Info: HUVEC TNFa-induced p65 nuclear translocation; measured here: nuclei count (cytotoxicity indicator), at 2.08 µM
Think of 500 as a floor: if cell count stands on it or above, it is Yes; beneath it, No.

Compound	Category Label
CCOC(=O)c1cc2sc(C)cc2n1CC(=O)Nc1cccc(C)c1C	Yes
Cn1c(=O)[nH]c(=O)c2c1nc(CN1CCN(c3cccc(Cl)c3)CC1)n2CCc1ccccc1	Yes
Cc1oc(-c2ccccc2Cl)nc1CSCC(=O)N1CCCC1	No
COc1ccc(Cl)cc1S(=O)(=O)N1CCN(c2ccc(F)cc2)CC1	Yes
O=C(O)C1CCCN1S(=O)(=O)c1ccc2ccccc2c1 (stereo unspecified)	Yes
COc1ccc(C(c2nnnn2C2CCCC2)N2CCN(C3CCCC3)CC2)cc1OC (stereo unspecified)	No
CCn1c(C)c(CCC(=O)O)c(=O)n2nc(-c3ccccc3OC)cc12	No
COc1cc(NC(=O)Nc2cccc(Cl)c2)c(OC)cc1NC(=O)CN1CCCCC1	Yes
CCN(CCNC(=O)C1CCN(S(C)(=O)=O)CC1)c1ccccc1	No
CCS(=O)(=O)N1CCCC(C(=O)NCCc2ccc(OC)c(OC)c2)C1 (stereo unspecified)	Yes

----------
Experiment Notes: endothelial E-selectin expression blockers – imaging, HUVEC, immunofluorescence, MLSMR starter and 10KST1 sets, primary screen (AID 487);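 also: signal is fraction of cell area covered by stained E-selectin grains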
Condition Info: HUVEC TNFalpha-induced E-selectin immunofluorescence imaging, at 2 µM; stronger effect = higher value
Decide using inhibition: a value greater than or equal to -10% is satisfied, a smaller one is not satisfied.

Compound	Category Label
O=C(C1CCCN(S(=O)(=O)c2cccs2)C1)N1CCc2ccccc2C1 (configuration not stated)	not satisfied
CCCn1c(SCC(=O)N2CCN(c3ccccc3)CC2)nc2ccccc2c1=O	satisfied
O=C(NCc1cccs1)c1cc2c(s1)-c1ccccc1OC2	not satisfied
COc1ccc(C/C(N)=N/n2cnnc2)cc1Cl	not satisfied
CC(=O)Nc1ccc(S(=O)(=O)N2CCC(c3nc4ccccc4[nH]3)CC2)cc1	satisfied
CCOC(=O)CSc1ncnc2c1cnn2-c1ccc(C)cc1	satisfied
O=C(CSc1nnc2ncccn12)N1CCCCCC1	satisfied
COc1ccc(CCN2CC(O)=C(c3nc4ccccc4c(=O)[nH]3)C2=N)cc1OC	not satisfied
CCOC(=O)N1CCC(NC(=O)c2ccc(CS(=O)(=O)c3c(Cl)cccc3Cl)o2)CC1	not satisfied
Cc1nc2scc(-c3cccs3)c2c(=O)n1-n1cccc1	not satisfied
CCn1nccc1C(=O)Nc1cc(Cl)ccc1Cl	satisfied
COc1ccccc1CN1CC(C(=O)NCc2cccnc2)CC1=O (configuration not stated)	satisfied
Cc1ccc(N2CCN(C(=O)c3ccccc3)CC2)c(C)c1	not satisfied
c1ccc(N2CCN(Cc3ccnc4ccccc34)CC2)cc1	satisfied
Cc1cccc2c1nc(-c1ccccc1)n1cnnc21	not satisfied
CCC(=O)N(CCCN(C)C)c1nc(-c2cc(OC)ccc2OC)cs1	not satisfied
FC(F)(F)c1cc(-c2ccco2)nc(NCc2ccco2)n1	not satisfied
CCCCSc1nc2c(cnn2-c2ccc(F)cc2)c(=O)[nH]1	not satisfied
O=C(NCCN1C(=O)C2C3C=CC(C3)C2C1=O)Nc1ccccn1 (configuration not stated)	not satisfied
O=C(NCC1CCCO1)C1CCC(CNS(=O)(=O)c2ccccc2)CC1 (configuration not stated)	not satisfied
COc1ccccc1NC(=O)c1oc2ccccc2c1NC(=O)c1cc(OC)c(OC)c(OC)c1	satisfied
Cc1nc2ccccc2c(=O)n1CC(=O)N1CCOCC1	satisfied
O=C(Nc1ccc(Cl)cc1C(=O)O)c1ccc2c(c1)C(=O)N(Cc1ccco1)C2=O	not satisfied
CC(C)=CCCC(C)N(C=O)C(C)CCC=C(C)C (configuration not stated)	not satisfied
COc1ccc(NC(=O)c2cc(C)on2)cc1OC	satisfied
COc1ccc(-c2nnc(SCC(=O)c3cc(C)n(Cc4cccs4)c3C)o2)cc1	not satisfied
COc1cc(C2c3c(oc4ccccc4c3=O)C(=O)N2c2ccc(C)cn2)ccc1O (configuration not stated)	not satisfied
Cc1ccc(C)c(/C(O)=C2\C(=O)C(=O)N(CCCN3CCOCC3)C2c2cccnc2)c1 (configuration not stated)	not satisfied
CN(C)CCCn1c(N)c(C#N)c2nc(C#N)c(C#N)nc21	not satisfied
CC(=O)NCc1nc2ccccc2n1C(C)C	satisfied
O=C(Nc1nccs1)c1cccc(NC(=O)C2CC2)c1	not satisfied
CSCCC(NC(=O)c1ccco1)C(=O)OC(C)C(=O)NC(=O)NC1CCCCC1 (configuration not stated)	not satisfied
CC1CCCN(C(=O)C23CCC(C)(C(=O)C2)C3(C)C)C1 (configuration not stated)	not satisfied
O=C(OCCN1C(=O)c2ccccc2C1=O)c1ccc(S(=O)(=O)N2CCCCCC2)cc1	not satisfied
CCOC(=O)c1cccc(NC2c3ccccc3C(=O)N2Cc2ccco2)c1 (configuration not stated)	not satisfied
CCCc1cc(C(=O)Nc2sc3c(c2C#N)CCC3)no1	not satisfied
O=C(COc1ccccc1Cl)NCCCN1CCOCC1	not satisfied
COc1ccccc1C(=O)OCn1nnc2ccccc2c1=O	not satisfied
O=S(=O)(c1cccc(-c2nnco2)c1)N1CCCC1	satisfied
O=S(=O)(c1ccccc1)c1nc(-c2ccco2)oc1NCCCN1CCOCC1	not satisfied
CCCCN(CCCC)CCn1cnc2c([nH]c3ccc(OC)cc32)c1=O	not satisfied
CCCCCCc1ccc(-c2ncc(N)cn2)cc1	not satisfied
COc1cccc(NC(=O)NC2(C(F)(F)F)Oc3ccccc3O2)c1	not satisfied
COc1ccc(-n2c(Cc3cccn3C)nnc2SCC(=O)Nc2ccccc2)cc1	not satisfied
COc1cccc(C(=O)OCn2nnc3ccccc3c2=O)c1	not satisfied
CS(=O)(=O)c1ccc2nc(NC(=O)c3cccs3)sc2c1	satisfied
